Cited source for all entries: patent US20220096516A1

Tested on: LHPP gene
METHOD_DESCRIPTION: High-throughput screening of saRNAs targeting LHPP promoter: LHPP mRNA by one-step RT-qPCR in Huh7 cells
Type: cell-based, human
MEASUREMENT_SETUP: 10 nM saRNA, 72 hours, relative to control (Mock)
d = 2'-deoxy (DNA); r = 2'-OH (RNA)
Measured Fold of changes in relative LHPP mRNA expression level (log2) accompanies every entry in the list below.
Hi! Could you send only the number? It should be in log2, unit omitted.

// solved cases for Fold of changes in relative LHPP mRNA expression level (log2) follow
Exam item: Which Fold of changes in relative LHPP mRNA expression level (log2) value is on record for RAG7-98: saRNA duplex; sense CCGAAAAGGACACCGUUUCTT (SEQ ID NO: 145), antisense GAAACGGUGUCCUUUUCGGTT (SEQ ID NO: 309) (sugars from the 5' end r19 d2, backbone not given here) ?
Marked response: 0.19

Exam item: Which Fold of changes in relative LHPP mRNA expression level (log2) value is on record for RAG7-132: saRNA duplex; sense CUCUUUGUCCGCUGAUCUCTT (SEQ ID NO: 4), antisense GAGAUCAGCGGACAAAGAGTT (SEQ ID NO: 168) (sugars from the 5' end r19 d2, backbone not given here) ?
Marked response: 0.90

Exam item: Which Fold of changes in relative LHPP mRNA expression level (log2) value is on record for RAG7-168: saRNA duplex; sense UGACCUUUCUUAGGGACUUTT (SEQ ID NO: 91), antisense AAGUCCCUAAGAAAGGUCATT (SEQ ID NO: 255) (sugars from the 5' end r19 d2, backbone not given here) ?
Marked response: 0.31

Further cases:
Exam item: Which Fold of changes in relative LHPP mRNA expression level (log2) value is on record for RAG7-174: saRNA duplex; sense UGCCUUUGACCUUUCUUAGTT (SEQ ID NO: 49), antisense CUAAGAAAGGUCAAAGGCATT (SEQ ID NO: 213) (sugars from the 5' end r19 d2, backbone not given here) ?
Marked response: 0.47

---

Measured Fold of changes in relative LHPP mRNA expression level (log2) accompanies every entry in the list below.
System: LHPP gene
METHOD_DESCRIPTION: High-throughput screening of saRNAs targeting LHPP promoter: LHPP mRNA by one-step RT-qPCR in Huh7 cells
Assay type: cell-based, human
MEASUREMENT_SETUP: 10 nM saRNA, 72 hours, relative to control (Mock)
d = 2'-deoxy (DNA); r = 2'-OH (RNA)
Hi! Could you send only the number? It should be in log2, unit omitted.

Exam item: Which Fold of changes in relative LHPP mRNA expression level (log2) value is on record for RAG7-850: saRNA duplex; sense UUGAAAGGUUCCGAGGGGCTT (SEQ ID NO: 46), antisense GCCCCUCGGAACCUUUCAATT (SEQ ID NO: 210) (sugars from the 5' end r19 d2, backbone not given here) ?
Marked response: 0.47

From here, focus on the item given below.
Exam item: Which Fold of changes in relative LHPP mRNA expression level (log2) value is on record for RAG7-43: saRNA duplex; sense CAGUUCCGGGUUUGCACCCTT (SEQ ID NO: 93), antisense GGGUGCAAACCCGGAACUGTT (SEQ ID NO: 257) (sugars from the 5' end r19 d2, backbone not given here) ?
Marked response: 0.30

---

Tested on: LHPP gene
METHOD_DESCRIPTION: High-throughput screening of saRNAs targeting LHPP promoter: LHPP mRNA by one-step RT-qPCR in Huh7 cells
Assay type: cell-based, human
MEASUREMENT_SETUP: 10 nM saRNA, 72 hours, relative to control (Mock)
d = 2'-deoxy (DNA); r = 2'-OH (RNA)
MEASURED_METRIC: Fold of changes in relative LHPP mRNA expression level (fold)
Hi! Could you send only the number? It should be in fold, unit omitted.

Exam item: Which Fold of changes in relative LHPP mRNA expression level value is on record for RAG7-191: saRNA duplex; sense GCCUUCUUGUCUCAAUUUGTT (SEQ ID NO: 88), antisense CAAAUUGAGACAAGAAGGCTT (SEQ ID NO: 252) (sugars from the 5' end r19 d2, backbone not given here) ?
Marked response: 1.25

Exam item: Which Fold of changes in relative LHPP mRNA expression level value is on record for RAG7-833: saRNA duplex; sense GCCAUUGAGGAAACUCCUCTT (SEQ ID NO: 138), antisense GAGGAGUUUCCUCAAUGGCTT (SEQ ID NO: 302) (sugars from the 5' end r19 d2, backbone not given here) ?
Marked response: 1.14

Exam item: Which Fold of changes in relative LHPP mRNA expression level value is on record for RAG7-113: saRNA duplex; sense CUGGGAAGAAAGCUUCCGATT (SEQ ID NO: 120), antisense UCGGAAGCUUUCUUCCCAGTT (SEQ ID NO: 284) (sugars from the 5' end r19 d2, backbone not given here) ?
Marked response: 1.18

Further cases:
Exam item: Which Fold of changes in relative LHPP mRNA expression level value is on record for RAG7-826: saRNA duplex; sense AGGAAACUCCUCCCUUUUATT (SEQ ID NO: 157), antisense UAAAAGGGAGGAGUUUCCUTT (SEQ ID NO: 321) (sugars from the 5' end r19 d2, backbone not given here) ?
Marked response: 1.11

---

Measured Fold of changes in relative LHPP mRNA expression level accompanies every entry in the list below.
System: LHPP gene
METHOD_DESCRIPTION: High-throughput screening of saRNAs targeting LHPP promoter: LHPP mRNA by one-step RT-qPCR in Huh7 cells
Type: cell-based, human
MEASUREMENT_SETUP: 10 nM saRNA, 72 hours, relative to control (Mock)
d = 2'-deoxy (DNA); r = 2'-OH (RNA)
Hi! Could you send only the number? It should be in fold, unit omitted.

// solved cases for Fold of changes in relative LHPP mRNA expression level follow
Exam item: Which Fold of changes in relative LHPP mRNA expression level value is on record for RAG7-180: saRNA duplex; sense UCAAUUUGCCUUUGACCUUTT (SEQ ID NO: 58), antisense AAGGUCAAAGGCAAAUUGATT (SEQ ID NO: 222) (sugars from the 5' end r19 d2, backbone not given here) ?
Marked response: 1.35

Exam item: Which Fold of changes in relative LHPP mRNA expression level value is on record for RAG7-165: saRNA duplex; sense CCUUUCUUAGGGACUUGUUTT (SEQ ID NO: 152), antisense AACAAGUCCCUAAGAAAGGTT (SEQ ID NO: 316) (sugars from the 5' end r19 d2, backbone not given here) ?
Marked response: 1.11

Exam item: Which Fold of changes in relative LHPP mRNA expression level value is on record for RAG7-94: saRNA duplex; sense AAAGGACACCGUUUCAGGGTT (SEQ ID NO: 13), antisense CCCUGAAACGGUGUCCUUUTT (SEQ ID NO: 177) (sugars from the 5' end r19 d2, backbone not given here) ?
Marked response: 1.64

Exam item: Which Fold of changes in relative LHPP mRNA expression level value is on record for RAG7-720: saRNA duplex; sense UGAUAGUCCCGUUUUCUUCTT (SEQ ID NO: 62), antisense GAAGAAAACGGGACUAUCATT (SEQ ID NO: 226) (sugars from the 5' end r19 d2, backbone not given here) ?
Marked response: 1.33

Exam item: Which Fold of changes in relative LHPP mRNA expression level value is on record for RAG7-126: saRNA duplex; sense GUCCGCUGAUCUCCUGGGATT (SEQ ID NO: 45), antisense UCCCAGGAGAUCAGCGGACTT (SEQ ID NO: 209) (sugars from the 5' end r19 d2, backbone not given here) ?
Marked response: 1.39

Exam item: Which Fold of changes in relative LHPP mRNA expression level value is on record for RAG7-31: saRNA duplex; sense UGCACCCGGUCUUCUUGCCTT (SEQ ID NO: 94), antisense GGCAAGAAGACCGGGUGCATT (SEQ ID NO: 258) (sugars from the 5' end r19 d2, backbone not given here) ?
Marked response: 1.23

Further cases:
Exam item: Which Fold of changes in relative LHPP mRNA expression level value is on record for RAG7-130: saRNA duplex; sense CUUUGUCCGCUGAUCUCCUTT (SEQ ID NO: 77), antisense AGGAGAUCAGCGGACAAAGTT (SEQ ID NO: 241) (sugars from the 5' end r19 d2, backbone not given here) ?
Marked response: 1.28

Exam item: Which Fold of changes in relative LHPP mRNA expression level value is on record for RAG7-885: saRNA duplex; sense CCAGAAGUAAAGUGUUCUCTT (SEQ ID NO: 147), antisense GAGAACACUUUACUUCUGGTT (SEQ ID NO: 311) (sugars from the 5' end r19 d2, backbone not given here) ?
Marked response: 1.14

Exam item: Which Fold of changes in relative LHPP mRNA expression level value is on record for RAG7-741: saRNA duplex; sense CCUCCUGGGUUUAACGCAUTT (SEQ ID NO: 95), antisense AUGCGUUAAACCCAGGAGGTT (SEQ ID NO: 259) (sugars from the 5' end r19 d2, backbone not given here) ?
Marked response: 1.23

Exam item: Which Fold of changes in relative LHPP mRNA expression level value is on record for RAG7-776: saRNA duplex; sense UAGCAUCGAGUGGUAUUUUTT (SEQ ID NO: 56), antisense AAAAUACCACUCGAUGCUATT (SEQ ID NO: 220) (sugars from the 5' end r19 d2, backbone not given here) ?
Marked response: 1.35

Exam item: Which Fold of changes in relative LHPP mRNA expression level value is on record for RAG7-120: saRNA duplex; sense UGAUCUCCUGGGAAGAAAGTT (SEQ ID NO: 141), antisense CUUUCUUCCCAGGAGAUCATT (SEQ ID NO: 305) (sugars from the 5' end r19 d2, backbone not given here) ?
Marked response: 1.14

Exam item: Which Fold of changes in relative LHPP mRNA expression level value is on record for RAG7-726: saRNA duplex; sense GCAUUGUGAUAGUCCCGUUTT (SEQ ID NO: 127), antisense AACGGGACUAUCACAAUGCTT (SEQ ID NO: 291) (sugars from the 5' end r19 d2, backbone not given here) ?
Marked response: 1.17

Exam item: Which Fold of changes in relative LHPP mRNA expression level value is on record for RAG7-168: saRNA duplex; sense UGACCUUUCUUAGGGACUUTT (SEQ ID NO: 91), antisense AAGUCCCUAAGAAAGGUCATT (SEQ ID NO: 255) (sugars from the 5' end r19 d2, backbone not given here) ?
Marked response: 1.24

Exam item: Which Fold of changes in relative LHPP mRNA expression level value is on record for RAG7-145: saRNA duplex; sense UCUGCUUUUCCUGCUCUUUTT (SEQ ID NO: 9), antisense AAAGAGCAGGAAAAGCAGATT (SEQ ID NO: 173) (sugars from the 5' end r19 d2, backbone not given here) ?
Marked response: 1.71

Exam item: Which Fold of changes in relative LHPP mRNA expression level value is on record for RAG7-86: saRNA duplex; sense CCGUUUCAGGGGCGAGUGATT (SEQ ID NO: 137), antisense UCACUCGCCCCUGAAACGGTT (SEQ ID NO: 301) (sugars from the 5' end r19 d2, backbone not given here) ?
Marked response: 1.15

Exam item: Which Fold of changes in relative LHPP mRNA expression level value is on record for RAG7-190: saRNA duplex; sense CCUUCUUGUCUCAAUUUGCTT (SEQ ID NO: 130), antisense GCAAAUUGAGACAAGAAGGTT (SEQ ID NO: 294) (sugars from the 5' end r19 d2, backbone not given here) ?
Marked response: 1.16
